meta.source: patent US20160220569A1

# ASSAY_OVERVIEW: 14-day oral gavage toxicokinetic study in rats
# Type: in vivo
# STATED_CONDITIONS: female, rat, plasma, po, 2 mg/kg, Mean Compound 1 Plasma Concentration, rats, oral 2 mg/kg, Day 1, 12 h, Female
REPORTED_PROPERTY: concentration at 12 h (ng/mL)
Give bare numbers, in ng/mL.

The value of concentration at 12 h measured for the molecule CN1CCN(c2ccc(Nc3ncc4cc5n(c4n3)C3(CCCCC3)CNC5=O)nc2)CC1 turned out to be 82.2

---

# ASSAY_OVERVIEW: 14-day oral gavage toxicokinetic study in rats
# Type: in vivo
# STATED_CONDITIONS: male, rat, plasma, po, 5 mg/kg, oral 5 mg/kg, Study Day 14, Male
REPORTED_PROPERTY: AUC(0-inf) (µg·h/mL)
Answers are plain numbers, in µg·h/mL.

The value of AUC(0-inf) measured for the compound CN1CCN(c2ccc(Nc3ncc4cc5n(c4n3)C3(CCCCC3)CNC5=O)nc2)CC1 turned out to be 5.12
